Reference for the values: paper PMC9782500

EC50 reference
- assayed-system: RXRα (Homo sapiens)
- Sequence (P19793 227-458 limits assumed): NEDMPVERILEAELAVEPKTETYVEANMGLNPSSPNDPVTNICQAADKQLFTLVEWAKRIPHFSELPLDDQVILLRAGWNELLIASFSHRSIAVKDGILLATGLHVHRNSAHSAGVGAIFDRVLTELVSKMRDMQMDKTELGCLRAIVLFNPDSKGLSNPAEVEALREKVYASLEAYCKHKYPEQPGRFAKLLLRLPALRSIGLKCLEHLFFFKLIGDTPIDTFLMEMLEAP
- method: RXRα activation EC50 (Luc and GFP UAS/Gal4 assays)
Write it as a number; the unit nM goes unstated.

C=CCN(c1ccc2c(c1)C(C)(C)CCC2(C)C)c1ncc(C(=O)O)cn1 | 0.54
Cc1cc2c(cc1N(C)c1ccc(C(=O)O)cc1)C(C)(C)CCC2(C)C [Compound 23, reference compound] | 8.6
C=CCN(c1ncc(C(=O)O)cn1)c1cc2c(cc1C)C(C)(C)CCC2(C)C | 5.3

Notebook: Cc1cc2c(cc1-c1cc(/C=C/C(=O)O)ccc1C(F)(F)F)C(C)(C)COC2(C)C , EC50 read as 59.2
